Measured values drawn from paper PMC5046085 for this set.

# assay-name: In vivo pharmacokinetics, plasma concentration by LC-MS/MS
# reported-conditions: female, mouse, single dose 10 mg/kg IP, C57BL/6 mice, read-out: plasma concentration 24 h after drug administration
assay-endpoint: concentration at 24 h

(Q) Give concentration at 24 h for the following molecule: NCCCOc1cc2ccccc2cc1C(=O)NCCOc1cc2ccccc2cc1C(=O)Nc1ccc(Cl)cc1O [666-15]
(A) 50 to 100 nM
